Target: mAChR M1 (Homo sapiens, UniProt P11229)
Construct: expressed in transfected cells; host or cells: CHO-K1
Sequence (P11229 1-460): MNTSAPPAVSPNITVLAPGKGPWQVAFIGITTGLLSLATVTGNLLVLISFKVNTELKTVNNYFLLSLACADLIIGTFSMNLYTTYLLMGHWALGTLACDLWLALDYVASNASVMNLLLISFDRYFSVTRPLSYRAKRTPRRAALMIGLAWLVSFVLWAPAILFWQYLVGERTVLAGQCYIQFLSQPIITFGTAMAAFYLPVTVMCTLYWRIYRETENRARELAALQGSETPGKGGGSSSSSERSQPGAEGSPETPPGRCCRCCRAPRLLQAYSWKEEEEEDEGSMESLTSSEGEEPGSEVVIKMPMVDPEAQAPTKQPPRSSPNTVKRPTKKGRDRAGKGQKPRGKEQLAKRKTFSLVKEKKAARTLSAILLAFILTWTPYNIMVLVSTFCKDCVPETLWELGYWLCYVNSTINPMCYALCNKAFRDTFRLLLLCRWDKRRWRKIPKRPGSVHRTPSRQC
Test: mAChR M1 cell-based functional assay (calcium mobilization, potentiation of EC20 acetylcholine response in CHO-K1 cells)
Conditions: CHO-K1; maximal response of curve fit or response at 30 μM test compound, as % of response to an about EC80 ACh concentration; read-out: Emax (% ACh maximum at 30 μM)
MEASURED_ENDPOINT: Emax (%)

(I) Cn1cc(-c2ccc(Cn3c(=O)sc4ccccc43)c(F)c2)cn1 [Compound B14]
(II) Cn1cc(-c2ccc(Cn3nc4ccccn4c3=O)c(F)c2)cn1 [Compound B13]
IN: Looking only at measured Emax, which entry is lower, I or II ? Reply briefly: the label of your chosen item.
OUT: II
(II: 29%, I: 45%)
